- Test system: Huntingtin protein (HTT)
- assay-name: Endogenous Huntingtin Protein Assay (MSD electrochemiluminescence ELISA; MW1 or MAB2166 capture, #5656S detection)
- Assay type: cell-based, human
- From the text: The Endogenous Huntingtin Protein assay used in Example 2 was developed using the Best Pair antibodies identified in Table 2, providing highly sensitive, high-throughput detection assays for polyglutamine-expanded (mHTT) and total human HTT in multiple cell systems. The platform used for the assay is the ELISA-based Meso Scale Discovery (MSD) electrochemiluminescence assay platform. […]
Item-by-item account of IC50

Examples from the recorded data:
stdin: Query (compound): CN(c1nnc(Oc2ccc(-c3cn[nH]c3)cc2)s1)C1CC(C)(C)NC(C)(C)C1 [Cpd 463] ; field requested: IC50
stdout: 3000 to 9000 nM

stdin: Could you share which IC50 value was measured for CN(c1ccc(-c2ccc3nccn3c2)nn1)C1CC(C)(C)NC(C)(C)C1 [Cpd 16] ?
stdout: 3000 to 9000 nM

stdin: Consider the compound shown here: CN(c1nnc(-c2ccc(-c3cn[nH]c3)cc2O)s1)C1CC(C)(C)NC(C)(C)C1 [Cpd 393] What is its recorded IC50?
stdout: ≤ 100 nM

---
stdin: Fill in the blank: the reported IC50 of CN(c1nnc(-c2ccc(-c3cn[nH]c3)c(F)c2F)s1)C1CC(C)(C)NC(C)(C)C1 [Cpd 348] is ____.
stdout: ≤ 100 nM

stdin: IC50 for CC1(C)CC(Oc2ccc(-c3c(F)cc(-c4cn[nH]c4)cc3F)nn2)CC(C)(C)N1 [Cpd 458] ?
stdout: 3000 to 9000 nM

stdin: Consider the compound shown here: CN(c1ccc(-c2cc3ccccc3cc2O)nn1)C1CC(C)(C)NC(C)(C)C1 [Cpd 26] What is its recorded IC50?
stdout: 100 to 500 nM

stdin: What value of measured IC50 is listed for Cn1cc(-c2ccc(-c3ccc(OC4CC(C)(C)NC(C)(C)C4)nn3)s2)cn1 [Cpd 449] ?
stdout: 3000 to 9000 nM

stdin: Form field: reported IC50 of CN(c1ccc(-c2ccc(-c3cn[nH]c3)nc2O)nn1)C1CC(C)(C)NC(C)(C)C1 [Cpd 460]
stdout: 3000 to 9000 nM

Source of measurements: patent US11638706B2
